B1: library; a variant is named by its letters at N, in order (parent)
chain: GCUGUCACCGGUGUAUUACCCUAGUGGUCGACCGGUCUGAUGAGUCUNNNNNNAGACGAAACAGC

variants of: B1; assay: normalized RNA/DNA level without ligand (relative to sTRSVctl = 100) (log10 (% of sTRSVctl)); ligand: hypoxanthine (xanthine aptamer); higher = less ribozyme self-cleavage, higher mRNA level; details: HEK293T, reporter: mCherry (pCS4076), ligand present: no
PROPERTY: normalized RNA/DNA level without ligand (log10)
Please give the numeric answer without any surrounding text.

[ask] Form field: reported normalized RNA/DNA level without ligand (log10) of CAAACG
[reply] 1.87

[ask] Form field: reported normalized RNA/DNA level without ligand (log10) of UGUGUU
[reply] 1.89

[ask] Form field: reported normalized RNA/DNA level without ligand (log10) of AAGGCG
[reply] 1.24

[ask] Form field: reported normalized RNA/DNA level without ligand (log10) of CCAGUA
[reply] 1.85

[ask] Form field: reported normalized RNA/DNA level without ligand (log10) of CGUCUG
[reply] 1.96

[ask] Form field: reported normalized RNA/DNA level without ligand (log10) of GAAUUU
[reply] 1.89

[ask] Form field: reported normalized RNA/DNA level without ligand (log10) of GCCAGC
[reply] 1.81

[ask] Form field: reported normalized RNA/DNA level without ligand (log10) of CAUCAC
[reply] 1.92

[ask] Form field: reported normalized RNA/DNA level without ligand (log10) of CAGAUC
[reply] 1.91

[ask] Form field: reported normalized RNA/DNA level without ligand (log10) of ACCACA
[reply] 1.9

[ask] Form field: reported normalized RNA/DNA level without ligand (log10) of CGCGUA
[reply] 1.81

[ask] Form field: reported normalized RNA/DNA level without ligand (log10) of UAAGGU
[reply] 1.53

[ask] Form field: reported normalized RNA/DNA level without ligand (log10) of CCUAUU
[reply] 1.9

[ask] Form field: reported normalized RNA/DNA level without ligand (log10) of CGUAGA
[reply] 1.8

[ask] Form field: reported normalized RNA/DNA level without ligand (log10) of CCGAGC
[reply] 1.44
